Recorded values, source patent US20110118131A1.

# tgt: T1, IL-1β (UniProt P01584 117-269)
# T1 construct: Antigen of XPA23
# assay.name: Biacore, Fab periplasmic extract
measured.metric: fold difference in affinity against the original (fold)

| binder | endpoint.unit | reported.measurement |
| --- | --- | --- |
| XPA23 heavy chain K31L (Fab, V domains shown, Fab, periplasmic extract; also called C5A K31L) VH: EVQLLESGGGLVQPGGSLRLSCAASGFTFSLYFMFWVRQAPGKGLEWVSVISPSGGMTRYADSVKGRFTISRDNSKNTLYLQMNSLRAEDTAVYYCARVGYGGNSDYWGQGTLVTVSS VL: DIQMTQSPSSVSASVGDRLTIICRASQDINRWLAWYQQTPGNAPKLLIHSATSLQSGVPSRFSGSGSGTDFTLTINSLQPEDFATYYCQQADSFPLTFGGGTKVEIK | fold | 1.08 |
